Value source: the RNAGym collection of RNA variant scans (doi:10.1073/pnas.2313332121)

B1: TPR t1 (parent)
chain: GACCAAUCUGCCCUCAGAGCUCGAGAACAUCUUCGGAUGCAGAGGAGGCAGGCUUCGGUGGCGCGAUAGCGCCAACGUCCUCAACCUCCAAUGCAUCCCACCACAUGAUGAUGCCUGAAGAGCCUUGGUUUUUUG

variants of: B1; assay: polymerase ribozyme fitness, log enrichment relative to wild type (log ratio); higher = more active; in vitro selection for triplet polymerase activity
Collected polymerase ribozyme fitness (log ratio) values appear next to each entry.
Just the number, please.

Worked examples, 10 variants total:
Q) Looking for the measured polymerase ribozyme fitness (log ratio) of A37U C76U , can you help?
A) -0.3

Q) Looking for the measured polymerase ribozyme fitness (log ratio) of A41G A50U , can you help?
A) -1.71

Q) Looking for the measured polymerase ribozyme fitness (log ratio) of G44A G60A , can you help?
A) -0.624

Q) Looking for the measured polymerase ribozyme fitness (log ratio) of G39C A66C , can you help?
A) -1.94

Q) Looking for the measured polymerase ribozyme fitness (log ratio) of C12G C62U A75C A108G , can you help?
A) -2.34

Q) Looking for the measured polymerase ribozyme fitness (log ratio) of C3A C4U C72U C123G , can you help?
A) -0.302

Q) Looking for the measured polymerase ribozyme fitness (log ratio) of G71U U96C , can you help?
A) -0.38

Q) Looking for the measured polymerase ribozyme fitness (log ratio) of A90C G120U , can you help?
A) -1.31

Q) Looking for the measured polymerase ribozyme fitness (log ratio) of C4A G69A , can you help?
A) -4.36

Q) Looking for the measured polymerase ribozyme fitness (log ratio) of A29G A66G , can you help?
A) -1.88

Continuing:
Q) Looking for the measured polymerase ribozyme fitness (log ratio) of C20A C49U G61U C85A , can you help?
A) -3.53

Q) Looking for the measured polymerase ribozyme fitness (log ratio) of C49G G60C A119U U133A , can you help?
A) -2.93

Q) Looking for the measured polymerase ribozyme fitness (log ratio) of U33A C62G C73A U78G , can you help?
A) -5.54

Q) Looking for the measured polymerase ribozyme fitness (log ratio) of C4A U9A C64U U96C , can you help?
A) -0.963

Q) Looking for the measured polymerase ribozyme fitness (log ratio) of C94A U112C U126G , can you help?
A) -0.847
